Target: EGFR WT in Ba/F3 cells (Homo sapiens (Human), UniProt P00533)
Sequence (P00533 25-1210): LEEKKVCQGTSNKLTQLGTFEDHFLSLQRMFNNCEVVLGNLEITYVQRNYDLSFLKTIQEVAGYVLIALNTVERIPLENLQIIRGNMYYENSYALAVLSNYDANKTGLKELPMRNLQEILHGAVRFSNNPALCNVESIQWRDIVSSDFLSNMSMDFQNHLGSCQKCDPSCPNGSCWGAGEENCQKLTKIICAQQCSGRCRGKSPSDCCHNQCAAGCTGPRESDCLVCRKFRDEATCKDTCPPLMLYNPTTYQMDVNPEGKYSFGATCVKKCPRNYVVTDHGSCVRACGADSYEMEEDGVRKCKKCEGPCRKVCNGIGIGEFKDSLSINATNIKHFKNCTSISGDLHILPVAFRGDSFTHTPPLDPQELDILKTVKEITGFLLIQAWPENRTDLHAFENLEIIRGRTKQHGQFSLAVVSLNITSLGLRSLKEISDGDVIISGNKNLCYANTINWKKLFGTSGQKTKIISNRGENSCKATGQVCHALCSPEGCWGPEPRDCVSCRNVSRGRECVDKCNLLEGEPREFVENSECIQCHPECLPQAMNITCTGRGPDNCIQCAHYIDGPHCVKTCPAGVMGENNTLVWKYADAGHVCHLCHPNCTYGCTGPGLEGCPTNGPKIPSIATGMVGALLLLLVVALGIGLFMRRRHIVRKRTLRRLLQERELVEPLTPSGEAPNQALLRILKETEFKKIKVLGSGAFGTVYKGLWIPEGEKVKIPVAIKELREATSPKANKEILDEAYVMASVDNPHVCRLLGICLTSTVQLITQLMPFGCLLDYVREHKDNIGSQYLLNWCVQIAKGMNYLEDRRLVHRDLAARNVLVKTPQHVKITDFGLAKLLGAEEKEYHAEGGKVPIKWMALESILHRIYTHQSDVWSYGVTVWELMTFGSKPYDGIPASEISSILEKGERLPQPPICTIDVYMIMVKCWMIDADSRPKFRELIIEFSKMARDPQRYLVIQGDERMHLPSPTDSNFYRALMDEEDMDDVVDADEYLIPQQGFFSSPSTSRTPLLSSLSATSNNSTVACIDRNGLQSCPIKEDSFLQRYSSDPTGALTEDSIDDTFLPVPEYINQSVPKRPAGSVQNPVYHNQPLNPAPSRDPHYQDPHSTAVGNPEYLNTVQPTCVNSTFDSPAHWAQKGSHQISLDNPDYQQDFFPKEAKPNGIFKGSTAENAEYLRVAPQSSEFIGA
Experiment: Ba/F3 pEGFR assay (AlphaLISA p-EGFR Tyr1068)
Details: 2 hrs treatment, media supplemented with EGF
observable: pIC50
The scale used: pIC50 is minus the common logarithm of the concentration in molar units.

1) CNc1nc(Nc2ccc(N3CCC(N4CCN(C)CC4)CC3)cc2OC)ncc1-c1ccc(O)c(C=O)c1 [Compound 15]    5.02

Prompt: Please look up its pIC50: COC(=O)Nc1cccc(C#Cc2cc(C(=O)/N=c3\[nH]c4ccc(CN5CCN(C)CC5)cc4n3CC(C)(C)O)ccn2)c1C=O [Compound 84]
Completion: 6.06
